- Protocol Summary: protein stability index of a GFP-peptide fusion (yeast GPS) (PSI 1-4); higher = more stable; sorted into four equal gates, so the index is relative within each strain
- Run Parameters: pdr5∆
This section presents sequences with their documented protein stability index values.
Property Measured: protein stability index

Sequence Chain: SEKLITKYFEPTSTENN [ECM29]
Value Observed: 3.09
//
Sequence Chain: LASIPDIFITPTPVVTI [SSN2]
Value Observed: 1.65
//
Sequence Chain: ENPNFWRQFGNRMQISP [GRR1]
Value Observed: 3.02
//
Sequence Chain: NHASMDVYNRELDEHTT [BRR2]
Value Observed: 3.16
//
Sequence Chain: PQENDLESKMSEVGDAF [SMC3]
Value Observed: 3.36
//
Sequence Chain: NTSAATVHTATSSSIIL [SSN2]
Value Observed: 2.76
//
Sequence Chain: TPVSHNDDLYGKVTDVR [RPL1A]
Value Observed: 3.04
//
Sequence Chain: MLWGGASMLGLFVFTEG [QCR10]
Value Observed: 1.82
//
Sequence Chain: MSLKKCQEEVSTIEKDM [SMC2]
Value Observed: 2.73
//
Sequence Chain: GKRQVLLRPSSKVIIKF [RPS22B]
Value Observed: 2.21
//
Sequence Chain: QSLDTIGGSDAAFEKRY [RPO21]
Value Observed: 3.38
//
Sequence Chain: LRNYLTPNVREEKQKSY [PUP1]
Value Observed: 2.88
//
Sequence Chain: SQQAGLDPYERAIYSYL [YDL116W/NUP84]
Value Observed: 3.19
//
Sequence Chain: NIKSNDFSIRKTCAKSV [ECM29]
Value Observed: 2.24
//
Sequence Chain: SVDITGGPWFTDGELDI [RPC34]
Value Observed: 3.43
//
Sequence Chain: TDLSGKETIARVTGGMK [RPS14A]
Value Observed: 3.12
//
Sequence Chain: AFLALVDAGIALNSMCA [RRP46]
Value Observed: 2.69
//
Sequence Chain: YENKDNLTAGIIVAGYD [PRE3]
Value Observed: 2.91
//
Sequence Chain: CFVLGIASMSTVRASSL [SMC2]
Value Observed: 1.86
//
Sequence Chain: FKQKLNELLKCKDDVQL [MTW1]
Value Observed: 2.96
//
Sequence Chain: GSGNNNEIESRQLTSLG [SNU114]
Value Observed: 3.32
//
Sequence Chain: KKYSSKNKYGEINSEDY [SRP68]
Value Observed: 2.8
//
Sequence Chain: SPSYSPTSPNYSPTSPS [RPO21]
Value Observed: 2.94
//
Sequence Chain: SFSFLNRADGTGEAQVD [YLR335W/NUP2]
Value Observed: 3.39
//
Sequence Chain: KLNIETMRKISSETDDD [DSN1]
Value Observed: 2.27
//
Sequence Chain: IIASASYDKTVKLWEED [YGL100W/SEH1]
Value Observed: 3.67
//
Sequence Chain: DGTAKEVGDEADNTKDK [MED4]
Value Observed: 3.18
//
Sequence Chain: LSMRFQRETSGMIVISM [SRB8]
Value Observed: 2.05
//
Sequence Chain: QQQQQQQNPKFLQSQRQ [SWI1]
Value Observed: 2.82
//
Sequence Chain: DIKAAVDDSMELCGQIR [ITC1]
Value Observed: 2.82
//
Sequence Chain: YQMQSNYESVFTYNKFL [YIL149C/MLP2]
Value Observed: 1.23
//
Sequence Chain: KGEMKGSAITGPVGKEC [RPL23A]
Value Observed: 2.98
//
Sequence Chain: SRKRAKKMTKKAKRSNL [PRP8]
Value Observed: 2.16
//
Sequence Chain: ISVSSRSDREYPLLIRM [SRP14]
Value Observed: 2.44
//
Sequence Chain: QSKLKDVVEYLDKVINK [RPN8]
Value Observed: 2.32
//
Sequence Chain: DCMIAHGAASFLKERLM [RPB2]
Value Observed: 2.54
//
Sequence Chain: FLKKNIIKENVKVARLA [FAS1]
Value Observed: 1.56
//
Sequence Chain: KFLQVMQKHGYIGEFEY [RPS22A]
Value Observed: 2.27
//
Sequence Chain: TLLPGLQDEVMNIKPVQ [RPS2]
Value Observed: 1.35
//
Sequence Chain: PGMPNMPGMPNMPGMPK [SRP54]
Value Observed: 3.22
//
Sequence Chain: STTEHINIDDLLYELTA [YJL039C/NUP192]
Value Observed: 2.61
//
Sequence Chain: TPAEMSRPATTTRNGFM [FAS2]
Value Observed: 2.57
//
Sequence Chain: KLTQKLVTAGVAAAGIT [CYT1]
Value Observed: 2.21
//
Sequence Chain: ALAEGHGDAAVLLVEKY [NAS6]
Value Observed: 3.12
//
Sequence Chain: WVKKFKWAGIKTRKFVF [CYT1]
Value Observed: 1.51
//
Sequence Chain: SYDKTVKLWEEDPDQEE [YGL100W/SEH1]
Value Observed: 3.21
//
Sequence Chain: LVEVEDEKIEAIKKKEK [SRB7]
Value Observed: 3.09
//
Sequence Chain: DSETSDPNEVEIKKLLA [DIS3]
Value Observed: 3.07
//
Sequence Chain: LSVEIGVLTDISSLIGG [NUT1]
Value Observed: 1.95
//
Sequence Chain: FVAATTNAGYTIELAGG [FAS1]
Value Observed: 2.97
//
Sequence Chain: KVPQQAAGKRISHIEKR [SMC1]
Value Observed: 3.14
//
Sequence Chain: SVKKAGASINSMKANTS [ARP7]
Value Observed: 2.46
//
Sequence Chain: GINKKKLLAISKFNNAD [RPC31]
Value Observed: 1.93
